Hey, just so you know, these numbers are from ChEMBL document CHEMBL1671734.

# System: Klebsiella pneumoniae
# measurementNotes: Antimicrobial activity against ESBL-positive Klebsiella pneumoniae 11932 harboring porin OmpK36 gene by Etest
# Assay type: functional
So I've got a bunch of molecules here, and I need their MIC values.
Reply numerically in µg/mL, unit not repeated.

Could you please provide reported MIC for C[C@@H](O)[C@H]1C(=O)N2C(C(=O)O)=C(S[C@@H]3CN[C@H](C(=O)N(C)C)C3)[C@H](C)[C@H]12 [MEROPENEM] ? Thanks!
0.064

Could you please provide reported MIC for CO/N=C(\C(=O)N[C@@H]1C(=O)N2C(C(=O)[O-])=C(C[N+]3(C)CCCC3)CS[C@H]12)c1csc(N)n1 [CEFEPIME] ? Thanks!
48

Could you please provide reported MIC for C[C@@H](O)[C@H]1C(=O)N2C(C(=O)O)=C(SCCNC=N)C[C@H]12 [IMIPENEM ANHYDROUS] ? Thanks!
0.19

Could you please provide reported MIC for CO[C@@]1(NC(=O)Cc2cccs2)C(=O)N2C(C(=O)O)=C(COC(N)=O)CS[C@@H]21 [CEFOXITIN] ? Thanks!
6

* * *

# Test system: Klebsiella pneumoniae
# measurementNotes: Antimicrobial activity against ESBL-positive Klebsiella pneumoniae 17830 harboring porin OmpK36V mutant gene by Etest
# Assay type: functional
So I've got a bunch of molecules here, and I need their MIC values.

Could you please provide reported MIC for "C[C@H]1[C@H](NC(=O)/C(=N\OC(C)(C)C(=O)O)c2csc(N)n2)C(=O)N1S(=O)(=O)O" ? Thanks!
> 256 µg/mL

Could you please provide reported MIC for C[C@@H](O)[C@H]1C(=O)N2C(C(=O)O)=C(SCCNC=N)C[C@H]12 [IMIPENEM ANHYDROUS] ? Thanks!
0.19 µg/mL

Could you please provide reported MIC for "CC(C)(O/N=C(\C(=O)N[C@@H]1C(=O)N2C(C(=O)[O-])=C(C[n+]3ccccc3)CS[C@H]12)c1csc(N)n1)C(=O)O" ? Thanks!
> 32 µg/mL

* * *

So I've got a bunch of molecules here, and I need their MIC values.
# Test system: Klebsiella pneumoniae
# measurementNotes: Antimicrobial activity against ESBL-positive Klebsiella pneumoniae 29830 harboring porin OmpK36V mutant gene by Etest
# Type: functional
Reply numerically in µg/mL, unit not repeated.

Could you please provide reported MIC for CO[C@@]1(NC(=O)Cc2cccs2)C(=O)N2C(C(=O)O)=C(COC(N)=O)CS[C@@H]21 [CEFOXITIN] ? Thanks!
128

Could you please provide reported MIC for C[C@@H](O)[C@H]1C(=O)N2C(C(=O)O)=C(S[C@@H]3CN[C@H](C(=O)N(C)C)C3)[C@H](C)[C@H]12 [MEROPENEM] ? Thanks!
1

* * *

# System: Klebsiella pneumoniae
# measurementNotes: Antimicrobial activity against ESBL-positive Klebsiella pneumoniae 50748 harboring porin OmpK36 gene by Etest
# Format: functional
measureName: MIC

Could you please provide reported MIC for CC(C)(O/N=C(\C(=O)N[C@@H]1C(=O)N2C(C(=O)[O-])=C(C[n+]3ccccc3)CS[C@H]12)c1csc(N)n1)C(=O)O [CEFTAZIDIME] ? Thanks!
> 32 µg/mL

Could you please provide reported MIC for CO/N=C(\C(=O)N[C@@H]1C(=O)N2C(C(=O)[O-])=C(C[N+]3(C)CCCC3)CS[C@H]12)c1csc(N)n1 [CEFEPIME] ? Thanks!
48 µg/mL

Could you please provide reported MIC for C[C@@H](O)[C@H]1C(=O)N2C(C(=O)O)=C(S[C@@H]3CN[C@H](C(=O)N(C)C)C3)[C@H](C)[C@H]12 [MEROPENEM] ? Thanks!
0.094 µg/mL
